SYSTEM: DRB1*1302
ASSAY COMMENT: binding to purified HLA
CONDITION INFO: chains peptide; modification not given
MEASUREMENT LABEL: IC50 (nM)

1. AKFVAAWTLKAAA [SEQ ID NO: 3] | 367
